Entry source: patent US20080261994A1

Study system: aggrecanase-1 (Homo sapiens, UniProt O75173)
Sequence (O75173 213-837, species assumed): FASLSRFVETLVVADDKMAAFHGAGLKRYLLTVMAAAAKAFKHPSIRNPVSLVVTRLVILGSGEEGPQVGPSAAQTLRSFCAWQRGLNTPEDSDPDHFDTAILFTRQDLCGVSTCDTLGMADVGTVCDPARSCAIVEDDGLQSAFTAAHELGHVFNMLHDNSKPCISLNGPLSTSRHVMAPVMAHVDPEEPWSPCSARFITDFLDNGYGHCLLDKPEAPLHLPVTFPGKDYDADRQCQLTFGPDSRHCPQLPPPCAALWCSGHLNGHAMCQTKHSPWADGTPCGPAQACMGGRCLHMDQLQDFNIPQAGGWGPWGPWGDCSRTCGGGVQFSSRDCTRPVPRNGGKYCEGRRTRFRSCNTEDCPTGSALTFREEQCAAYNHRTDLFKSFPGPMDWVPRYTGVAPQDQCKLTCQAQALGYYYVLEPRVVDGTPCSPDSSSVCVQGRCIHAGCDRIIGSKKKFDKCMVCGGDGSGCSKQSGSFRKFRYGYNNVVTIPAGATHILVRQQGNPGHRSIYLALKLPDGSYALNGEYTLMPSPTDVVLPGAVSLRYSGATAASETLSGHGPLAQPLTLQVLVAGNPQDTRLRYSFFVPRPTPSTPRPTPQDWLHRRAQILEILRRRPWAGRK
Test protocol: Aggrecanase-1 inhibitory action (Particle Assay, GAG release from aggrecan-containing polyacrylamide particles)
Format: biochemical
Assay context: aggrecanase-1 inhibitory action; read-out: IC50 AG1 (Experimental Example 1)
pIC50: −log10 of the molar value.
Measured endpoint: pIC50

>>> measured("CN(C)c1cccc(C2CC2(NS(=O)(=O)c2ccc(-c3ccc(Cl)cc3)cc2)C(=O)O)c1 (stereo not shown)")
"> 6.00"
>>> measured("CN(C)c1cccc(C2CC2(NS(=O)(=O)c2ccc(-c3cc(C(F)(F)F)on3)s2)C(=O)O)c1 (stereo not shown)")
"> 6.00"
>>> measured("C[C@]1(c2ccccc2)C[C@@]1(NS(=O)(=O)c1ccc(-c2cc(CF)sn2)s1)C(=O)O")
"> 7.00"
>>> measured("O=C(O)[C@]1(NS(=O)(=O)c2ccc(-c3cc(C(F)F)sn3)s2)C[C@@H]1c1ccccc1")
"> 7.00"
>>> measured("O=C1O[C@H]([C@H]2C[C@@]2(NS(=O)(=O)c2ccc(-c3ccc(Cl)cc3)s2)C(=O)O)CN1Cc1ccccc1")
"≤ 5.00"
>>> measured("O=C(O)C1(NS(=O)(=O)c2ccc3c(c2)Cc2cc(Br)ccc2-3)CC1c1ccccc1 (stereo not shown)")
"> 7.00"
>>> measured("O=C(O)C1(NS(=O)(=O)c2ccc(-c3ccc(Cl)cc3)s2)CC1c1ccc(Br)cc1 (stereo not shown) [Example 2-202]")
"> 6.00"

====

IC50 listing for selected compounds.
Study system: Recombinant Human MMP-13 (Homo sapiens, UniProt P45452)
Construct: purchased R&D systems 511-MM
Test protocol: MMP-13 inhibitory activity (MMP-13 specific fluorescent substrate with quencher)
Format: biochemical
Assay context: Experimental Example 3; read-out: IC50 MMP13
Measured endpoint: IC50

>>> measured("C[C@]1(c2ccccc2)C[C@@]1(NS(=O)(=O)c1ccc(N2CCC(F)(F)C2)s1)C(=O)O")
"≥ 10 µM"
>>> measured("C[C@]1(c2ccccc2)C[C@@]1(NS(=O)(=O)c1ccc(-c2cccc(NS(C)(=O)=O)c2)s1)C(=O)O")
"< 1 µM"
>>> measured("CCC1[C@@H](c2ccccc2)[C@@]1(NS(=O)(=O)c1ccc(-c2cc(C(F)(F)F)on2)s1)C(=O)O (stereo partly shown)")
"< 0.1 µM"
>>> measured("CC1[C@H](c2ccccc2)[C@]1(NS(=O)(=O)c1ccc(-c2ccc(Cl)cc2F)s1)C(=O)O (stereo partly shown)")
"< 0.1 µM"
>>> measured("C[C@]1(c2ccccc2)C[C@@]1(NS(=O)(=O)c1ccc(-c2ccc(O)cc2)s1)C(=O)O")
"< 1 µM"
>>> measured("CC1[C@H](c2ccccc2)[C@]1(NS(=O)(=O)c1ccc(-c2ccc(Cl)c(CO)c2)s1)C(=O)O (stereo partly shown)")
"< 0.1 µM"
>>> measured("O=C(O)C1(NS(=O)(=O)c2cn3cc(-c4ccc(Cl)cc4)nc3s2)CC1c1ccccc1 (stereo not shown)")
"< 0.1 µM"

====

Study system: aggrecanase-1 (Homo sapiens, UniProt O75173)
Test protocol: Aggrecanase-1 inhibitory action (Particle Assay, GAG release from aggrecan-containing polyacrylamide particles)
Format: biochemical
Assay context: aggrecanase-1 inhibitory action; read-out: IC50 AG1 (Experimental Example 1)
IC50 listing for selected molecules.
Measured endpoint: IC50

>>> measured("O=C(O)C1(NS(=O)(=O)c2ccc(-c3ccc(Cl)cc3)s2)CC1c1ccccc1Br (stereo not shown)")
"< 1000 nM"
>>> measured("O=C(O)[C@]1(NS(=O)(=O)c2ccc(-c3cccc(Cl)c3)s2)C[C@@H]1c1ccccc1")
"< 1000 nM"
>>> measured("O=C(O)C1(NS(=O)(=O)c2ccc(-c3ccc(Cl)cc3)s2)CC1(CCO)c1ccccc1 (stereo not shown)")
"< 100 nM"
>>> measured("CCC(=O)c1ccc(S(=O)(=O)NC2(C(=O)O)CC2c2ccccc2)s1 (stereo not shown)")
"≥ 10000 nM"
